System Under Test: T1, PDZRN3_1, Q9UPQ7
T1 sequence (Q9UPQ7 244-349, limits assumed, looked up): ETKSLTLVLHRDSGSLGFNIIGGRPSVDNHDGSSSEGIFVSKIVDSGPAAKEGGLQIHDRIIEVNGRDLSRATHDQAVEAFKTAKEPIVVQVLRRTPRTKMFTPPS
Test Description: holdup assay
Parameters: key: below the threshold = too weak to quantify, mostly under pKd 3.1 to 4
Stated Conditions: plain residues with an end cap or a label only (N-terminal biotin on a linker: ado-ado)
Reported Property: pKd

>>> reported_result("IKAIVDLTGL [TRAF2, Q12933]")
"below the threshold"
>>> reported_result("VRNLPESEEL [MYOZ3, Q8TDC0]")
"below the threshold"
>>> reported_result("KKMPSIESDV [GRIN2A, Q12879]")
"below the threshold"
>>> reported_result("DTTVPESEDL [MYOZ2, Q9NPC6]")
"below the threshold"
>>> reported_result("GSGAVEMESV [AQP6, Q13520]")
"below the threshold"
>>> reported_result("SAAKVLTSMC [GHRHR, Q02643]")
"below the threshold"
